The values you see were collected from paper PMC12392461.

Emax reference
target or test system: Estrogen Receptor ERα (Homo sapiens)
Sequence (P03372 311-547 limits assumed): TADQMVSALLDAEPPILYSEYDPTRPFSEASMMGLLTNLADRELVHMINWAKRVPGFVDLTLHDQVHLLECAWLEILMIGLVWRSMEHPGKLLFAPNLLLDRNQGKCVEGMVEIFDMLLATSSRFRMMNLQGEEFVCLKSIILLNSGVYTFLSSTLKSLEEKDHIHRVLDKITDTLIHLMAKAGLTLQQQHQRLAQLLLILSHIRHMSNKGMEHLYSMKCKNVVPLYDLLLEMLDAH
test protocol: cell-based
experimental parameters: read-out: Emax%ERα, maximum efficacy relative to E2
measurement kind: Emax (%)

1. CC(C)(c1ccc(O)c(-c2ccccc2)c1)c1ccc(O)c(-c2ccccc2)c1 [BPPH, 2,2-Bis(2-hydroxy-5-biphenylyl)propane]    0
2. CCC(C)(c1ccc(O)cc1)c1ccc(O)cc1    24
3. CC(C)c1cc(C(C)(C)c2ccc(O)c(C(C)C)c2)ccc1O    19
4. O=S(=O)(c1ccc(O)cc1)c1ccccc1O [2,4-BPS, 2,4'-Dihydroxydiphenyl sulfone]    19
5. O=S(=O)(c1ccc(O)cc1)c1ccc(O)cc1    66

====

target or test system: Aryl hydrocarbon receptor (Rattus norvegicus, UniProt P41738)
Sequence (P41738 10-853): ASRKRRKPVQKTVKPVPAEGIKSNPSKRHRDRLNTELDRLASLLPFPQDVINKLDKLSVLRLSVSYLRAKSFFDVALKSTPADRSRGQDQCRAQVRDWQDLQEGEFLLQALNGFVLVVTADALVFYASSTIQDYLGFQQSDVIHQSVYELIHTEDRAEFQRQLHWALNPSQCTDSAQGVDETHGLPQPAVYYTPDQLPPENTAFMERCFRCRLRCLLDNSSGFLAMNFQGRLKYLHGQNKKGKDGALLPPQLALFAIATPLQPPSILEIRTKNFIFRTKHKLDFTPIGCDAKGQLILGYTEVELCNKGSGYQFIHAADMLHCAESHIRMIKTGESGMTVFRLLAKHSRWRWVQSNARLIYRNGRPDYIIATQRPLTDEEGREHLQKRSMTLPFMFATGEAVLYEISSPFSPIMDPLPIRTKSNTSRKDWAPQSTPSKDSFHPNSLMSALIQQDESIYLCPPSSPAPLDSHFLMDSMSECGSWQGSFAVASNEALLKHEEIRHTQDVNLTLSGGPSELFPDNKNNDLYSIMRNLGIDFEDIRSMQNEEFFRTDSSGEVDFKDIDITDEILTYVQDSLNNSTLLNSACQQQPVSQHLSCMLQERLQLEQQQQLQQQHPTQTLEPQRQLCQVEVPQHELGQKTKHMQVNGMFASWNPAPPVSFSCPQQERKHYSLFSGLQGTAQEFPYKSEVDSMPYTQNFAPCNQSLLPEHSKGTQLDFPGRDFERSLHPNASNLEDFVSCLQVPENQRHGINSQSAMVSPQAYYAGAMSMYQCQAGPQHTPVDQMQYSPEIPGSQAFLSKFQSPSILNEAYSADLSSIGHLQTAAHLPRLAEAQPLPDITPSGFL
experimental parameters: against baseline cytotoxicity
Excerpt: All bioassay media components and the ERα-UAS-bla GripTite and PPARγ-UAS-bla cells were obtained from Thermo Fisher Scientific (Waltham, MA, USA). AREc32 reporter gene cells based on MCF7 were provided by C. Roland Wolf (Cancer Research UK); AhR CALUX cells (H4L7.5c2 derived from H4IIe) were provided by Michael Denison (UC Davis, USA); and SH-SY5Y cells were purchased from Sigma-Aldrich. […]
Specificity ratio (SRbaseline) SRAhR reference
measurement kind: Specificity ratio (SRbaseline) SRAhR

1) Cc1ccc(S(=O)(=O)NC(=O)Nc2cccc(OS(=O)(=O)c3ccc(C)cc3)c2)cc1    6.02
2) CC(C)(c1ccc(O)cc1)c1ccc(O)cc1 [BPA, 4,4'-(Propane-2,2-diyl)diphenol, reference compound]    0.10
3) COC(=O)C(c1ccc(O)cc1)c1ccc(O)cc1 [Bz, Methyl bis(4-hydroxyphenyl)acetate]    5.57
4) CC(C)(c1ccc(O)c(-c2ccccc2)c1)c1ccc(O)c(-c2ccccc2)c1 [BPPH, 2,2-Bis(2-hydroxy-5-biphenylyl)propane]    0.43

====

System: HEK293H (PPARγ)
experimental parameters: PPARγ bioassay cytotoxicity; dosing range all
measurement kind: IC10, linear transformed

1. CC1(C)[C@H](O)C(C)(C)[C@H]1O [Trans TMCD]    1.52E-03
2. Cc1cc(Cc2cc(C)c(O)c(C)c2)cc(C)c1O [TMBPF, Bis(3,5-dimethyl-4-hydroxyphenyl)methane]    4.21E-07
3. CC(C)(c1ccc(OCC2CO2)cc1)c1ccc(OCC2CO2)cc1 (stereo not shown)    1.49E-05
4. Oc1ccc(Sc2ccc(O)cc2)cc1    4.47E-06

====

Test system: H4IIe (AhR CALUX)
experimental parameters: Bioassay AhR; cytotoxicity; dosing range all
measurement kind: IC10, linear transformed

1) CC(c1ccc(O)cc1)c1ccc(O)cc1    1.06E-04
2) CC(C)(c1ccc(O)c(-c2ccccc2)c1)c1ccc(O)c(-c2ccccc2)c1 [BPPH, 2,2-Bis(2-hydroxy-5-biphenylyl)propane]    1.81E-05
3) COC(=O)C(c1ccc(O)cc1)c1ccc(O)cc1 [Bz, Methyl bis(4-hydroxyphenyl)acetate]    1.41E-04
4) O=C(OCc1ccccc1)c1ccc(O)cc1 [BzPB, Benzyl 4-hydroxybenzoate]    2.87E-04
5) CC1(C)[C@H](O)C(C)(C)[C@H]1O [Trans TMCD]    1.03E-02
6) Oc1ccc(Sc2ccc(O)cc2)cc1    8.07E-05
7) O=S(=O)(c1ccc(O)cc1)c1ccc(OCc2ccccc2)cc1 [BPS-MPE, 4-[4-(benzyloxy)benzenesulfonyl]phenol]    5.80E-05
8) Oc1ccc(C2(c3ccc(O)cc3)CCCCC2)cc1 [BPZ, 1,1'-Bis(4-hydroxyphenyl)cyclohexane]    8.38E-05
9) CC1(C)C(O)C(C)(C)C1O (racemic)    9.14E-03
10) CC(C)c1cc(C(C)(C)c2ccc(O)c(C(C)C)c2)ccc1O    2.43E-05
11) CC(C)(c1cc(Cl)c(O)c(Cl)c1)c1cc(Cl)c(O)c(Cl)c1    9.01E-05
12) Oc1ccc(C(c2ccc(O)cc2)(C(F)(F)F)C(F)(F)F)cc1    3.99E-05
13) Oc1ccc(Cc2ccc(O)cc2)cc1 [BPF, Bis(4-hydroxyphenyl)methane]    2.92E-04

====

target or test system: Estrogen Receptor ERα (Homo sapiens)
test protocol: cell-based
experimental parameters: Bioassay ERα; dosing range all; log-logistic model fit
measurement kind: logEC10

1. Oc1ccc(Cc2ccc(O)cc2)cc1 [BPF, Bis(4-hydroxyphenyl)methane]    -6.00
2. CC(C)Oc1ccc(S(=O)(=O)c2ccc(O)cc2)cc1 [D8, 4-((4-Isopropoxyphenyl)sulfonyl)phenol]    -4.95
3. CC(C)c1cc(C(C)(C)c2ccc(O)c(C(C)C)c2)ccc1O [BPG]    -6.04
4. C=CCOc1ccc(S(=O)(=O)c2ccc(O)cc2)cc1 [BPS-MAE, 4-[[4-(Allyloxy)phenyl]sulfonyl]phenol]    -4.90
5. O=C(OCc1ccccc1)c1ccc(O)cc1 [BzPB, Benzyl 4-hydroxybenzoate]    -5.52
6. Oc1ccc(Sc2ccc(O)cc2)cc1 [BPT, 4,4'-Thiodiphenol]    -6.54

====

Test system: HEK293H, HEK293T, H4IIe, MCF7 and SH-SY5Y cells
experimental parameters: median cytotoxicity of all cell lines
measurement kind: IC10,Median (M)

1. CC1(C)C(O)C(C)(C)C1O (racemic)    8.29 × 10^–3 M
2. CC1(C)[C@H](O)C(C)(C)[C@H]1O    8.94 × 10^–3 M
3. O=S(=O)(c1ccc(O)cc1)c1ccc(OCc2ccccc2)cc1 [BPS-MPE, 4-[4-(benzyloxy)benzenesulfonyl]phenol]    1.12 × 10^–4 M
4. C=CCOc1ccc(S(=O)(=O)c2ccc(O)cc2)cc1 [BPS-MAE, 4-[[4-(Allyloxy)phenyl]sulfonyl]phenol]    1.90 × 10^–4 M

====

test protocol: Acidity constant (pKa) measurement, Sirius T3 UV-metric, and speciation at pH 7.4
experimental parameters: from experimental pKa
Neutral form (pH = 7.40) reference
measurement kind: Neutral form (pH = 7.40) (%)

1. CC1(C)[C@H](O)C(C)(C)[C@H]1O [t-TMCD]    100
2. CC(C)Oc1ccc(S(=O)(=O)c2ccc(O)cc2)cc1 [D8, 4-((4-Isopropoxyphenyl)sulfonyl)phenol]    61
3. CC(C)(c1ccc(OCC2CO2)cc1)c1ccc(OCC2CO2)cc1 (stereo not drawn) [BADGE, Bisphenol A diglycidyl ether]    100
4. Cc1ccc(S(=O)(=O)NC(=O)Nc2ccc(Cc3ccc(NC(=O)NS(=O)(=O)c4ccc(C)cc4)cc3)cc2)cc1 [BTUM]    0.0007
5. Oc1ccc(C2(c3ccc(O)cc3)CCCCC2)cc1 [BPZ, 1,1'-Bis(4-hydroxyphenyl)cyclohexane]    99
6. COC(=O)C(c1ccc(O)cc1)c1ccc(O)cc1 [Bz, Methyl bis(4-hydroxyphenyl)acetate]    71
7. O=S(=O)(c1ccc(O)cc1)c1ccc(OCc2ccccc2)cc1 [BPS-MPE, 4-[4-(benzyloxy)benzenesulfonyl]phenol]    68
8. O=S(=O)(c1ccc(O)cc1)c1ccc(O)cc1 [BPS, 4,4'-Sulfonyldiphenol]    39
9. Oc1ccc(Sc2ccc(O)cc2)cc1 [BPT, 4,4'-Thiodiphenol]    96
10. Oc1ccc(Cc2ccc(O)cc2)cc1 [BPF, Bis(4-hydroxyphenyl)methane]    99
11. CC(C)(c1ccc(O)cc1)c1ccc(O)cc1 [BPA, 4,4'-(Propane-2,2-diyl)diphenol, reference compound]    100
12. CCC(C)(c1ccc(O)cc1)c1ccc(O)cc1 [BPB, 4,4'-(Butane-2,2-diyl)diphenol]    99
13. CC(C)(c1ccc(O)c(-c2ccccc2)c1)c1ccc(O)c(-c2ccccc2)c1 [BPPH, 2,2-Bis(2-hydroxy-5-biphenylyl)propane]    99
14. CC(c1ccccc1)(c1ccc(O)cc1)c1ccc(O)cc1 [BPAP, 4,4'-(1-Phenylethylidene)bisphenol]    98
15. Oc1ccc(C(c2ccc(O)cc2)(C(F)(F)F)C(F)(F)F)cc1 [BPAF]    95
16. CC(C)(c1cc(Cl)c(O)c(Cl)c1)c1cc(Cl)c(O)c(Cl)c1 [TCBPA, 2,2',6,6'-Tetrachlorobisphenol A]    29
17. CC1(C)C(O)C(C)(C)C1O (racemic) [r-TMCD]    100
18. O=C(OCc1ccccc1)c1ccc(O)cc1 [BzPB, Benzyl 4-hydroxybenzoate]    99
